PROCEDURE DETAILS: 7-day mouse tolerability and PK study
TEST CONDITIONS: female, C57BL/6, mouse, plasma, po, 10 mg/kg, AUCtlast (clofazimine), Day 1; CFZ 10 mg/kg alone; oral, mouse plasma
VALUE TYPE: AUC(0-t) (ng·h/mL)
Entry rule: numbers only, all in ng·h/mL.

In one line, give reported AUC(0-t) of the entry CC(C)/N=c1\cc2n(-c3ccc(Cl)cc3)c3ccccc3nc-2cc1Nc1ccc(Cl)cc1 [Clofazimine, clofazimine] .
2150

###

PROCEDURE DETAILS: 7-day mouse tolerability and PK study
TEST CONDITIONS: female, C57BL/6, mouse, plasma, po, 30 mg/kg, Cmax (clofazimine), Day 1; CFZ 30 mg/kg alone; oral, mouse plasma
VALUE TYPE: Cmax

Answer with the recorded Cmax of `CC(C)/N=c1\cc2n(-c3ccc(Cl)cc3)c3ccccc3nc-2cc1Nc1ccc(Cl)cc1` only.
181 ng/mL

###

PROCEDURE DETAILS: 7-day mouse tolerability and PK study
TEST CONDITIONS: female, C57BL/6, mouse, in vivo, po, 60 mg/kg
Method: Sixty (60) female mice were tested, 12 per treatment groups: […]
VALUE TYPE: Tmax (h)
API: value field is a number in h; no unit string.

Identify the reported Tmax for the following entry. `CO[C@H]1/C=C/O[C@@]2(C)Oc3c(C)c(O)c4c(c3C2=O)C2=NC3(CCN(CC(C)C)CC3)NC2=C(NC(=O)/C(C)=C\C=C\[C@H](C)[C@H](O)[C@@H](C)[C@@H](O)[C@@H](C)[C@H](OC(C)=O)[C@@H]1C)C4=O`
1

###

PROCEDURE DETAILS: 7-day mouse tolerability and PK study
TEST CONDITIONS: female, C57BL/6, mouse, in vivo, po, 60 mg/kg, Cmax (rifabutin), Day 1; RFB 60 mg/kg with CLR 200 mg/kg and CFZ 30 mg/kg; oral, mouse plasma
VALUE TYPE: Cmax (ng/mL)
Kindly answer with a numeric value in ng/mL, unit omitted.

Indicate its recorded Cmax; the compound in question is `CO[C@H]1/C=C/O[C@@]2(C)Oc3c(C)c(O)c4c(c3C2=O)C2=NC3(CCN(CC(C)C)CC3)NC2=C(NC(=O)/C(C)=C\C=C\[C@H](C)[C@H](O)[C@@H](C)[C@@H](O)[C@@H](C)[C@H](OC(C)=O)[C@@H]1C)C4=O`
5300

###

PROCEDURE DETAILS: 7-day mouse tolerability and PK study
TEST CONDITIONS: female, C57BL/6, mouse, plasma, po, 10 mg/kg, Cmax (clofazimine), Day 7; CFZ 10 mg/kg alone; oral once daily, mouse plasma
VALUE TYPE: Cmax (ng/mL)
Reply with just the number (in ng/mL).

Tell us which Cmax value is on record for `CC(C)/N=c1\cc2n(-c3ccc(Cl)cc3)c3ccccc3nc-2cc1Nc1ccc(Cl)cc1`
277

###

PROCEDURE DETAILS: 7-day mouse tolerability and PK study
TEST CONDITIONS: female, C57BL/6, mouse, in vivo, po, 60 mg/kg, AUCtlast (rifabutin), Day 7; RFB 60 mg/kg alone; oral once daily, mouse plasma
VALUE TYPE: AUC(0-t) (ng·h/mL)
Numeric answer only, unit ng·h/mL assumed.

Please report the measured AUC(0-t) for `CO[C@H]1/C=C/O[C@@]2(C)Oc3c(C)c(O)c4c(c3C2=O)C2=NC3(CCN(CC(C)C)CC3)NC2=C(NC(=O)/C(C)=C\C=C\[C@H](C)[C@H](O)[C@@H](C)[C@@H](O)[C@@H](C)[C@H](OC(C)=O)[C@@H]1C)C4=O`
61400
